- experiment: Selectivity index, ratio of IC50 for african green monkey (Cercopithecus aethiops) Vero cells to IC50 for chloroquine-resistant Plasmodium falciparum W2
selectivity ratio listing for selected molecules.
Lab note: jot the number down without any unit.

Below: 6 molecules and their reported selectivity ratio.
smiles entry	selectivity ratio
CN(C)c1ccc(-c2cn(CCCCCC(=O)NO)nn2)cc1	88.3
COc1ccc2cc(-c3cn(CCCCCCC(=O)NO)nn3)ccc2c1	50
COc1ccc2cc(-c3cn(CCCCCCCC(=O)NO)nn3)ccc2c1	3.9
O=C(CCCCCCn1cc(-c2cccnc2)nn1)NO	46.7
Cc1ccccc1-c1cn(CCCCCCC(=O)NO)nn1	5.1
O=C(CCCCCCn1cc(-c2ccccn2)nn1)NO	23.8

From here, focus on the item given below.
Consider the molecule `O=C(CCCCCCCCn1cc(-c2ccccc2)nn1)NO` and give its measured selectivity ratio.
1.2

====

- tested on: Histone deacetylase
- experiment: Inhibition of HDAC in human HeLa cell nuclear extracts after 15 mins by fluorescence assay
- Assay type: cell-based
log10 IC50 listing for selected compounds.
In our notation, the value equals log10 of IC50 in nM.

Below: 5 compounds and their reported log10 IC50.
smiles entry	recorded metric	assay result
Cc1ccccc1-c1cn(CCCCCCC(=O)NO)nn1	log10 IC50	0.45
O=C(CCCCCCCn1cc(-c2cccc(-c3ccccc3)c2)nn1)NO	log10 IC50	2.04
CN(C)c1ccc(-c2cn(CCCCCCCCC(=O)NO)nn2)cc1	log10 IC50	2.78
O=C(CCCCCCCCn1cc(-c2cccc(-c3ccccc3)c2)nn1)NO	log10 IC50	2.17
O=C(CCCCCCCn1cc(-c2cccnc2)nn1)NO	log10 IC50	2.63

Consider the compound `O=C(CCCCCCCn1cc(-c2ccccc2)nn1)NO` and give its measured log10 IC50.
2.56

Consider the compound `O=C(CCCCCCCCn1cc(-c2ccccc2)nn1)NO` and give its measured log10 IC50.
1.74

Consider the compound `CN(C)c1ccc(-c2cn(CCCCCCCC(=O)NO)nn2)cc1` and give its measured log10 IC50.
1.20

Consider the compound `COc1ccc2cc(-c3cn(CCCCCCCC(=O)NO)nn3)ccc2c1` and give its measured log10 IC50.
2.35

Consider the compound `O=C(CCCCCCn1cc(-c2cccnc2)nn1)NO` and give its measured log10 IC50.
2.56

Consider the compound `O=C(CCCCCCCn1cc(-c2ccc(-c3ccncc3)cc2)nn1)NO` and give its measured log10 IC50.
2.33

====

IC50 listing for selected molecules.
- System: Plasmodium falciparum
- experiment: microbe, parasite or virus in culture
- Format: functional, organism-based, W2, Vero
- condition set: Plasmodium falciparum, W2, Vero, 72 h; read-out: IC50
- Description: Antimalarial activity against chloroquine-resistant Plasmodium falciparum W2 infected in African green monkey (Cercopithecus aethiops) Vero cells assessed as parasite LDH activity after 72 hrs by Malstat reagent method
Field format: number, assumed µg/mL, no unit text.

smiles entry	assay result
O=C(CCCCCCn1cc(-c2cccc(-c3ccccc3)c2)nn1)NO	0.025

Consider the molecule `COc1ccc(-c2cn(CCCCCC(=O)NO)nn2)cc1` and give its measured IC50.
0.09

Consider the molecule `COc1ccc2cc(-c3cn(CCCCCCC(=O)NO)nn3)ccc2c1` and give its measured IC50.
0.053

====

- experiment: Selectivity index, ratio of IC50 for african green monkey (Cercopithecus aethiops) Vero cells to IC50 for chloroquine-sensitive Plasmodium falciparum D6
recorded metric: selectivity ratio

smiles entry	selectivity ratio
O=C(CCCCCn1cc(-c2ccc3cccnc3c2)nn1)NO	> 90.7
Cc1ccccc1-c1cn(CCCCCCC(=O)NO)nn1	5.9
O=C(CCCCCn1cc(-c2ccc(-c3ccncc3)cc2)nn1)NO	> 105

From here, focus on the item given below.
Consider the molecule `O=C(CCCCCCCCn1cc(-c2ccccc2)nn1)NO` and give its measured selectivity ratio.
1.9

====

- experiment: Selectivity index, ratio of IC50 for african green monkey (Cercopithecus aethiops) Vero cells to IC50 for chloroquine-sensitive Plasmodium falciparum D6
Recorded selectivity ratio determines the group label, using class 1 = under 10, class 2 = from 10 up to 40, class 3 = 40 and over

See these solved cases before continuing.
smiles entry	category label
COc1ccc(-c2cn(CCCCCC(=O)NO)nn2)cc1	class 2
COc1ccc2cc(-c3cn(CCCCCC(=O)NO)nn3)ccc2c1	class 3
O=C(CCCCCn1cc(-c2ccccc2)nn1)NO	class 3

Assign a bin to `O=C(CCCCCCCn1cc(-c2ccc(-c3ccncc3)cc2)nn1)NO`
class 3

Assign a bin to `Cc1ccccc1-c1cn(CCCCCC(=O)NO)nn1`
class 1

Assign a bin to `Cc1ccc(-c2cn(CCCCCC(=O)NO)nn2)cc1`
class 2

====

selectivity ratio listing for selected molecules.
- experiment: Selectivity index, ratio of IC50 for african green monkey (Cercopithecus aethiops) Vero cells to IC50 for chloroquine-resistant Plasmodium falciparum W2

smiles entry	selectivity ratio
O=C(CCCCCn1cc(-c2cccnc2)nn1)NO	> 23.2
O=C(CCCn1cc(-c2ccccc2)nn1)NO	> 1.4

From here, focus on the item given below.
Consider the molecule `O=C(CCCCCn1cc(-c2cccc(-c3ccccc3)c2)nn1)NO` and give its measured selectivity ratio.
> 183

====

- experiment: Selectivity index, ratio of IC50 for african green monkey (Cercopithecus aethiops) Vero cells to IC50 for chloroquine-resistant Plasmodium falciparum W2
recorded metric: selectivity ratio

Consider the compound `O=C(CCCCCCCn1cc(-c2ccc(-c3ccncc3)cc2)nn1)NO` and give its measured selectivity ratio.
30.2

Consider the compound `O=C(CCCCCCCn1cc(-c2ccccc2)nn1)NO` and give its measured selectivity ratio.
> 6.8

Consider the compound `O=C(CCCCCCCn1cc(-c2cccc(-c3ccccc3)c2)nn1)NO` and give its measured selectivity ratio.
> 7.3

====

- experiment: Selectivity index, ratio of IC50 for african green monkey (Cercopithecus aethiops) Vero cells to IC50 for chloroquine-resistant Plasmodium falciparum W2
selectivity ratio listing for selected compounds.

smiles entry	recorded metric	assay result
O=C(CCCCCCn1cc(-c2cccc(-c3ccccc3)c2)nn1)NO	selectivity ratio	> 190

Consider the compound `COc1ccc2cc(-c3cn(CCCCCC(=O)NO)nn3)ccc2c1` and give its measured selectivity ratio.
> 91.9

Consider the compound `O=C(CCCCCCCn1cc(-c2cccnc2)nn1)NO` and give its measured selectivity ratio.
> 2.8

Consider the compound `O=C(CCCCCn1cc(-c2ccncc2)nn1)NO` and give its measured selectivity ratio.
> 35.9

Consider the compound `CN(C)c1ccc(-c2cn(CCCCCCCCC(=O)NO)nn2)cc1` and give its measured selectivity ratio.
> 2.9

====

- experiment: Selectivity index, ratio of IC50 for african green monkey (Cercopithecus aethiops) Vero cells to IC50 for chloroquine-sensitive Plasmodium falciparum D6
recorded metric: selectivity ratio
Lab note: jot the number down without any unit.

smiles entry	assay result
O=C(CCCCCn1cc(-c2ccccc2-c2ccccc2)nn1)NO	1.3
O=C(CCCCCn1cc(-c2ccccn2)nn1)NO	2.9
CN(C)c1ccc(-c2cn(CCCCCCC(=O)NO)nn2)cc1	31.2

From here, focus on the item given below.
Consider the molecule `COc1ccccc1-c1cn(CCCCCC(=O)NO)nn1` and give its measured selectivity ratio.
15.3

====

selectivity ratio listing for selected molecules.
- experiment: Selectivity index, ratio of IC50 for african green monkey (Cercopithecus aethiops) Vero cells to IC50 for chloroquine-sensitive Plasmodium falciparum D6

smiles entry	assay result
O=C(CCCCCCn1cc(-c2ccccc2)nn1)NO	11.3
CN(C)c1ccc(-c2cn(CCCCCC(=O)NO)nn2)cc1	50
O=C(CCCCCn1cc(-c2ccc3ccccc3n2)nn1)NO	72.7
CN(C)c1ccc(-c2cn(CCCCCCCC(=O)NO)nn2)cc1	3.8
COc1ccc2cc(-c3cn(CCCCCCC(=O)NO)nn3)ccc2c1	55.8
O=C(CCCn1cc(-c2ccccc2)nn1)NO	> 1.7
O=C(CCCCCn1cc(-c2ccncc2)nn1)NO	> 24.4
O=C(CCCCCCn1cc(-c2cccc(-c3ccccc3)c2)nn1)NO	> 190

Consider the molecule `O=C(CCCCCCn1cc(-c2ccc(-c3ccncc3)cc2)nn1)NO` and give its measured selectivity ratio.
> 4.1

Consider the molecule `O=C(CCCCCCn1cc(-c2ccccn2)nn1)NO` and give its measured selectivity ratio.
13.8

Consider the molecule `O=C(CCCCCn1cc(-c2cccnc2)nn1)NO` and give its measured selectivity ratio.
> 27.2

Consider the molecule `O=C(CCCCCCCCn1cc(-c2cccc(-c3ccccc3)c2)nn1)NO` and give its measured selectivity ratio.
> 1.4

Consider the molecule `CN(C)c1ccc(-c2cn(CCCCCCCCC(=O)NO)nn2)cc1` and give its measured selectivity ratio.
> 2.6

====

- experiment: Selectivity index, ratio of IC50 for african green monkey (Cercopithecus aethiops) Vero cells to IC50 for chloroquine-sensitive Plasmodium falciparum D6
selectivity ratio listing for selected compounds.

smiles entry	recorded metric	assay result
COc1cccc(OC)c1-c1cn(CCCCCC(=O)NO)nn1	selectivity ratio	> 2.4
O=C(CCCCCCCn1cc(-c2cccnc2)nn1)NO	selectivity ratio	> 3.2

Consider the compound `O=C(CCCCCn1cc(-c2cccs2)nn1)NO` and give its measured selectivity ratio.
> 103

Consider the compound `O=C(CCCCCCCn1cc(-c2cccc(-c3ccccc3)c2)nn1)NO` and give its measured selectivity ratio.
> 5.6

All values here come from ChEMBL document CHEMBL1157662.
